Reference for the values: ChEMBL document CHEMBL5360555

The reader will find reported pKi values listed item by item below.
TARGET_SYSTEM: E3 ubiquitin-protein ligase Mdm2 (Homo sapiens)
Sequence (Q00987 whole entry): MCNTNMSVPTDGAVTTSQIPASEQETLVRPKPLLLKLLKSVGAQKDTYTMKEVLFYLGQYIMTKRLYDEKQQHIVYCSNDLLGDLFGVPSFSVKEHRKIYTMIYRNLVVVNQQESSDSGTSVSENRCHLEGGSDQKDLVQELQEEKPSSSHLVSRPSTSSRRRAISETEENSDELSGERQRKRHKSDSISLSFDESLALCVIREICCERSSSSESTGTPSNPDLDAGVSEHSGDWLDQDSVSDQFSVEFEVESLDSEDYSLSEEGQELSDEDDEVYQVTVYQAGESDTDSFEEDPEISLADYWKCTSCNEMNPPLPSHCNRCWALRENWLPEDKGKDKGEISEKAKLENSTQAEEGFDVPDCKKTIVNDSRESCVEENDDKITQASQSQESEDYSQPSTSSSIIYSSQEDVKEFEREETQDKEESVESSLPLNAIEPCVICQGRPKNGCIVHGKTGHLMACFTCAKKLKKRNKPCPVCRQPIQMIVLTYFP
pKi: −log10 of the molar value.

{"MOLECULE": "O=C(c1ccc(Cl)cc1)C(c1ccc(F)cc1Cl)N(C(=O)CCC(=O)N1CCN(CCO)CC1)c1ccc(Cl)cc1 (stereo unspecified)", "pKi": 6.32}
{"MOLECULE": "O=C(c1ccc(Cl)cc1)C(Cc1cc2ccccc2cn1)C(=O)c1cc(F)ccc1F (stereo unspecified)", "pKi": 4.66}
{"MOLECULE": "Cc1cc(Cl)cc(NC(C(=O)c2ccc(Cl)cc2)c2ccc(F)c(Cl)c2)c1 (stereo unspecified)", "pKi": 4.76}
{"MOLECULE": "O=C(c1ccc(Cl)cc1)C(Cc1ccc(Cl)cc1)C(=O)c1cc(F)ccc1F (stereo unspecified)", "pKi": 4.63}
{"MOLECULE": "COc1ccc(C(=O)C(Nc2ccc(C)cc2)c2ccc(OC)cc2)cc1 (stereo unspecified)", "pKi": 4.78}
{"MOLECULE": "O=C(c1ccc(Cl)cc1)C(Nc1cc(F)cc(F)c1)c1ccc(Cl)c(Cl)c1 (stereo unspecified)", "pKi": 5.16}
{"MOLECULE": "O=C(O)/C=C/C(=O)N(c1ccc(Cl)cc1)C(C(=O)c1ccc(Cl)cc1)c1ccc(F)cc1Cl (stereo unspecified)", "pKi": 5.96}
{"MOLECULE": "COc1ccc(C(=O)C(Nc2ccccc2)c2ccccc2)cc1 (stereo unspecified)", "pKi": 4.59}
{"MOLECULE": "COC(=O)c1ccc(C(=O)N(c2ccc(Cl)cc2)C(C(=O)c2ccc(Cl)cc2)c2ccc(F)cc2Cl)cc1 (stereo unspecified)", "pKi": 5.97}
{"MOLECULE": "O=C(c1ccc(Cl)cc1)C(c1ccc(F)cc1Cl)N(C(=O)CCC(=O)N1CCNCC1)c1ccc(Cl)cc1 (stereo unspecified)", "pKi": 6.64}
{"MOLECULE": "COC(=O)/C=C/C(=O)N(c1ccc(Cl)cc1)C(C(=O)c1ccc(Cl)cc1)c1ccc(F)cc1Cl (stereo unspecified)", "pKi": 5.84}
{"MOLECULE": "O=C(c1ccc(Cl)cc1)C(Nc1cccc(Cl)c1F)c1ccc(Cl)c(Cl)c1 (stereo unspecified)", "pKi": 5.67}
{"MOLECULE": "O=C(O)CCCCC(=O)N(c1ccc(Cl)cc1)C(C(=O)c1ccc(Cl)cc1)c1ccc(F)cc1Cl (stereo unspecified)", "pKi": 6.15}
{"MOLECULE": "CC(C)(C)OC(=O)N1CCN(C(=O)CCC(=O)N(c2ccc(Cl)cc2)C(C(=O)c2ccc(Cl)cc2)c2ccc(F)cc2Cl)CC1 (stereo unspecified)", "pKi": 6.14}
{"MOLECULE": "O=C(c1ccc(Cl)cc1)C(Cc1ccsc1)C(=O)c1cc(F)ccc1F (stereo unspecified)", "pKi": 4.85}
{"MOLECULE": "O=C(c1ccc(Cl)cc1)C(Cc1ccc(Cl)nc1)C(=O)c1cc(F)ccc1F (stereo unspecified)", "pKi": 4.81}
